The origin of these recorded values is PubChem BioAssay AID485314.

# MEASURED ON: DNA polymerase beta (Homo sapiens) (UniProt P06746)
# ASSAY COMMENT: qHTS Assay for Inhibitors of DNA Polymerase Beta; further: potency means the concentration at half of the fitted maximal effect
# CONDITION: Pol beta primer extension/strand displacement, fluorescence kinetic; series mostly up to 114 µM
In all, about 340,000 compounds went through this assay and about 4,500 (1.3%) were called active. Another 5% or so got no clear call; they are omitted. The sample as a whole holds a higher share of actives than the screen did.
READOUT LABEL: Potency

- COMPOUND: "COc1ccc(C(=O)Nc2cc(C)ccc2NC(=O)COc2ccccc2)cc1"
  MEASURED ON: "DNA polymerase beta (Homo sapiens) (UniProt P06746)"
  Potency: "inactive"
- COMPOUND: "Cc1cccc2c1-c1sc(C(=O)Nc3ccc(F)cc3F)cc1CO2"
  MEASURED ON: "DNA polymerase beta (Homo sapiens) (UniProt P06746)"
  Potency: "inactive"
- COMPOUND: "O=C(CSc1ncc(CO)n1Cc1ccc(Cl)cc1)NCc1ccc(F)cc1"
  MEASURED ON: "DNA polymerase beta (Homo sapiens) (UniProt P06746)"
  Potency: "inactive"
- COMPOUND: "COc1cc(/C=N/NC(=O)c2cc(C)n(-c3ccc(F)cc3)c2C)cc(OC)c1O"
  MEASURED ON: "DNA polymerase beta (Homo sapiens) (UniProt P06746)"
  Potency: "inactive"
- COMPOUND: "CC(=O)c1ccc(S(=O)(=O)N2CCC3(CC2)OCCO3)cc1"
  MEASURED ON: "DNA polymerase beta (Homo sapiens) (UniProt P06746)"
  Potency: "inactive"
- COMPOUND: "Cc1ccc(Cc2nc3ccccc3nc2SCC(=O)Nc2cccc(C(F)(F)F)c2)cc1"
  MEASURED ON: "DNA polymerase beta (Homo sapiens) (UniProt P06746)"
  Potency: "inactive"

Please state, for each entry, its recorded Potency.
1. CCOc1cccc(CC(=O)N2CCc3c([nH]c4ccccc34)C2c2ccc(OC)cc2)c1OCC (stereo unspecified)
2. CCOC(=O)C1CCN(c2ncnc3c2c(-c2ccccc2)cn3-c2cccc(C)c2)CC1
3. CCCc1cc(=O)n2[nH]c(NCc3ccc(CC)cc3)nc2n1
4. COc1ccc(OC)c2sc(N3CCN(C(=O)C4COc5ccccc5O4)CC3)nc12 (stereo unspecified)
5. COc1ccc(OC)c(CNC(=O)CN2C(=O)CCn3nc(-c4cn(C)c5ccccc45)cc32)c1
6. Cc1ccc(C(=O)Oc2coc(CSc3nnc(NC(=O)c4cccs4)s3)cc2=O)cc1C

Key:
inactive
inactive
inactive
inactive
inactive
20 µM (active)

Please state, for each entry, its recorded Potency.
1. CCSc1nnc(NC(=O)c2ccc(C)cc2)s1
2. Cc1ccc(-c2cnc(C3CC3)o2)cc1S(=O)(=O)Nc1cccc(C)c1C
3. O=C(NCc1ccccc1Cl)c1cccn1-c1nnc(N2CCCCC2)s1

Key:
1: inactive; 2: inactive; 3: inactive

Please state, for each entry, its recorded Potency.
1. COc1ccc(-c2cccc(NS(=O)(=O)c3cc(C)c(OC)c(C)c3C)c2)nn1
2. O=C(NCCc1ccc(Cl)cc1)c1ccc2c(c1)N(Cc1ccc(F)cc1)C(=O)CS2
3. Oc1ccc(-c2nc3ccc(Cl)cn3c2Nc2ccc3c(c2)OCO3)cc1
4. CCC(c1nnnn1C1CCCC1)N1CCN(C(=O)c2ccco2)CC1 (stereo unspecified)
5. COc1cccc(CNC(=O)Cc2csc3nc(-c4ccccc4)cn23)c1

Key:
["inactive", "inactive", "inactive", "44.7 µM (active)", "inactive"]
